# target: T1, Human OSM (human, UniProt P13725 26-221)
# T1 construct: Recombinant human OSM; also called hOSM; human Oncostatin M
# T1 sequence: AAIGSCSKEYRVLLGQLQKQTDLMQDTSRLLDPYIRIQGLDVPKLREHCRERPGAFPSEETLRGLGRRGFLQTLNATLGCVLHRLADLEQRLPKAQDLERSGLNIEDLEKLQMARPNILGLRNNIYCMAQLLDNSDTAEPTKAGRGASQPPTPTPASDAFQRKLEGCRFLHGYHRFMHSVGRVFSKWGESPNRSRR
# protocol: SPR (ProteOn XPR36 or Biacore T100), captured supernatant, OSM as analyte [continued]
readout_kind: Kd (nM)
Just the number in nM, nothing appended.

Pos 100C Trp (antibody, V domains shown, also called CDRH3 Y100C>W) VH: EVQLVESGGGLVQPGGSLRLSCAASGFTFSSYAMSWVRQAPGKGLEWVATISDGGSFTYYLDNVRGRFTISRDNAKNSLYLQMNSLRAEDTAVYYCARDVGHTTFWWFDVWGRGTLVTVSS VL: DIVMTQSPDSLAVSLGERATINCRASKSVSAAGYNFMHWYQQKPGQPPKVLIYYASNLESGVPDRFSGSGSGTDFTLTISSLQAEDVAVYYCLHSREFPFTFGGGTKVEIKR | 0.687

Turning now to a further record.
# Kd of Pos 102 Ser (antibody, V domains shown, also called CDRH3 V102>S) VH: EVQLVESGGGLVQPGGSLRLSCAASGFTFSSYAMSWVRQAPGKGLEWVATISDGGSFTYYLDNVRGRFTISRDNAKNSLYLQMNSLRAEDTAVYYCARDVGHTTFWYFDSWGRGTLVTVSS VL: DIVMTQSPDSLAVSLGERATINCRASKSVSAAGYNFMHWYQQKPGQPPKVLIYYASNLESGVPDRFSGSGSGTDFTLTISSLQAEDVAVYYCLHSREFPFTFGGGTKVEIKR = 0.444
